meta.source: patent US20260130928A1

# condition parameters: read-out: Cmax converted to the molar concentration; celecoxib single dosage (200 mg) in healthy subjects
metric name: Cmax
Units required after the number.

// query Cmax value for entry Cc1ccc(-c2cc(C(F)(F)F)nn2-c2ccc(S(N)(=O)=O)cc2)cc1
1.85 µM

###

# assay comment: clinical
# condition parameters: human, in vivo
metric name: Cmax (µM)
Write down the numeric answer in µM and omit the unit.

// query Cmax value for entry CC(C)Cc1ccc(C(C)C(=O)O)cc1 (stereo not shown) [Ibuprofen]
94
